Tested system: Focal adhesion kinase 1 (Homo sapiens) (UniProt Q05397)
Sequence (Q05397 whole entry, looked up): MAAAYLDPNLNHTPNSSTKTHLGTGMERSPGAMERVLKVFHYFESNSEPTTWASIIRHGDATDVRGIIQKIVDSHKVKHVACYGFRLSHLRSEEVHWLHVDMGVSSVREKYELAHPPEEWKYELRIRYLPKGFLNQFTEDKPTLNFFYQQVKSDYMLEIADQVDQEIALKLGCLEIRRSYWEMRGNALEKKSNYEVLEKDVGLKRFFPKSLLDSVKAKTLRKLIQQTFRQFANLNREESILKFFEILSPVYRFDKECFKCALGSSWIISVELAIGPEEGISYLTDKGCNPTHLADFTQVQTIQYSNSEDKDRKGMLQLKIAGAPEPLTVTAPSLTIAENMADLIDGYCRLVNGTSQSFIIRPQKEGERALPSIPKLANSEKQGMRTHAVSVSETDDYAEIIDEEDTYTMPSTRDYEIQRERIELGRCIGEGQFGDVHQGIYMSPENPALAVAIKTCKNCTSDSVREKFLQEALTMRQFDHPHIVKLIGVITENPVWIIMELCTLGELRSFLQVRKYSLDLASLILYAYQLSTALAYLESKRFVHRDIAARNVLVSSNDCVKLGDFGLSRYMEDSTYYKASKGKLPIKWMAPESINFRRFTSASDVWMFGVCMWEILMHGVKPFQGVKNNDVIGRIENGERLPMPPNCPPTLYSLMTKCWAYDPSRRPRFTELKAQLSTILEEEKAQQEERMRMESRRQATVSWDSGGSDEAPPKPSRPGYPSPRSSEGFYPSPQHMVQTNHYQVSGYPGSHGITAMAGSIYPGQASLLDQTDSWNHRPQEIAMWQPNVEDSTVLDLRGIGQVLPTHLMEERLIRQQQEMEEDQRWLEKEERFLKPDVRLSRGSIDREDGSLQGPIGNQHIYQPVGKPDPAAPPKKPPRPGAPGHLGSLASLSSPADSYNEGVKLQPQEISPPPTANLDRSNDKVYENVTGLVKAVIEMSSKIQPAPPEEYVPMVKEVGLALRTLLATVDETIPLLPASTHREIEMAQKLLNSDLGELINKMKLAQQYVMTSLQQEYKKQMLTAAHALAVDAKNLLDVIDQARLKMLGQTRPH
Experimental protocol: PTK2 protein binding on printed compound slides – biochemical, small-molecule microarray, 635/667 nm fluorescence, BSA, DTT, primary screen (AID 1130);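 note: composite of spot emission at 667 nm and signal to noise over triplicate slides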
Reported conditions: 635 nm fluorescence, higher = more signal
Give composite z-score for every item shown.
I'd appreciate a reply containing only the number, no unit.

INPUT: Looking for the measured composite z-score of `CC(C)C[C@@H]1NC(=O)[C@@H]2C[C@H](C(=O)NCc3ccc(F)cc3)[C@H](c3ccc(O)cc3)N2C1=O` , can you help?
OUTPUT: 0.317

INPUT: What do you get for `O=C1N(Cc2ccccc2)c2ccccc2[C@H]2OC(c3ccc(OCCCO)cc3)=N[C@@]12CCS(=O)(=O)c1ccccc1` ?
OUTPUT: 1.06

INPUT: Please give the result for `CCCNC(=O)[C@@H]1c2ccccc2C(=O)N(CC23CC4CC(CC(C4)C2)C3)[C@H]1c1ccc(CO)cc1` too.
OUTPUT: 0.734

INPUT: Now the same for `C[N+](C)(C)CCCCCCNC(=O)[C@@H]1C[C@@H]2C(=O)NCC(=O)N2[C@@H]1c1cccc(OCCO)c1`
OUTPUT: 1.18

INPUT: Follow-up item: `O=C1C[C@@](C(=O)NCc2ccccc2)(c2ccc([N+](=O)[O-])cc2)[C@@H](c2ccc(CO)cc2I)N1C1CCCCC1`
OUTPUT: 0.532

INPUT: Further, for CC(C)C(CO)N1C(=O)[C@@H]2[C@H]3C(=O)OCC=C[C@H]3OC23C=CCN(Cn2nnc4ccccc42)C(=O)[C@@H]13 (some centres not stated) ?
OUTPUT: 0.118

INPUT: Also need CC(C)CCC[C@@H](C)[C@H]1CC[C@@]2(C)C3=C(CC[C@]12C)[C@@]1(C)CC[C@H](OC(=O)c2ccc(N)cc2)C(C)(C)C1CC3 (some centres not stated) , thanks.
OUTPUT: 0.108

* * *

Experimental protocol: probe aInhba binding on compound microarray – biochemical, small-molecule microarray, 635/667 nm fluorescence, primary screen (AID 1148);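 note: score merges 667nm spot fluorescence with signal-to-noise for antibody binding to printed compounds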
Reported conditions: higher = more signal
Measured quantity: composite z-score

INPUT: Looking for the measured composite z-score of `COC(=O)[C@@]1(Cc2ccc(F)cc2)[C@H]2c3cc(C(=O)N(C)C)n(Cc4ccc(C)c(F)c4F)c3C[C@H]2CN1C(=O)c1ccccc1` , can you help?
OUTPUT: 0.651

INPUT: Thanks! And `COC(=O)[C@]1(Cc2ccccc2CN=[N+]=[N-])N=C(c2ccc(OCCCO)cc2)O[C@@H]1c1ccccc1CN=[N+]=[N-]` ?
OUTPUT: -0.0471

INPUT: // next record `CCOC(=O)C[C@H]1[C@H](OC(=O)c2ccc(C(=O)c3ccccc3)cc2)[C@@H](NC(=O)C2CCCCC2)c2cc(OCCCO)ccc2N1C(=O)Cc1ccc(OC)cc1`
OUTPUT: 0.0497

* * *

Experimental protocol: probe aNOTCH3 binding on compound microarray – biochemical, small-molecule microarray, 635/667 nm fluorescence, primary screen (AID 1120);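 note: probe is a biotin-tagged antibody raised against NOTCH3 rather than NOTCH3 protein; score merges spot fluorescence near 667 nm with spot signal to noise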
Reported conditions: higher = more signal
So I've got a bunch of compounds here, and I need their composite z-score values.
Enter a number only.

INPUT: Item under review: `C[N+](C)(C)CCCC[C@@H]1NC(=O)[C@@H]2C[C@H](C(=O)NCCCCCNC(=O)CS)[C@H](c3cccc(OCCO)c3)N2C1=O` . Reported composite z-score?
OUTPUT: 0.0287

INPUT: Do the same for `O=C1O[C@@H](c2ccccc2)[C@@H](c2ccccc2)N2[C@@H](c3ccc(O)cc3)[C@]3(C(=O)Nc4ccc(C#CC5(O)CCCCCC5)cc43)[C@@H](C(=O)N3CCN(c4ncccn4)CC3)[C@H]12` please
OUTPUT: -0.0558

INPUT: Can you handle `C[N+](C)(C)CCCCCCNC(=O)[C@@H]1C[C@@H]2C(=O)NCC(=O)N2[C@@H]1c1cccc(OCCO)c1` next?
OUTPUT: -0.0338

INPUT: Try CC(C)CCC[C@@H](C)[C@H]1CC[C@@]2(C)C3=C(CC[C@]12C)[C@@]1(C)CC[C@H](OC(=O)C(C)(C)C)C(C)(C)C1CC3 (some centres not stated) next.
OUTPUT: -0.0396

INPUT: Next compound: `NC(=O)[C@@H]1[C@H]2C(=O)O[C@H](c3ccccc3)[C@H](c3ccccc3)N2[C@H](c2ccccc2OCCO)[C@@]12C(=O)Nc1ccc(C#CCCO)cc12`
OUTPUT: -0.218

INPUT: And `COCCOC(=O)N1C(=O)[C@@]2(c3cc(C#CC4(O)CCCCCC4)ccc31)[C@H](C(=O)N1CCN(c3ncccn3)CC1)[C@H]1C(=O)O[C@H](c3ccccc3)[C@H](c3ccccc3)N1[C@@H]2c1ccc(O)cc1` ?
OUTPUT: -0.0006

INPUT: Same question, `COc1cc2c(cc1OC)CN(C(=O)[C@@H]1[C@H]3C(=O)O[C@H](c4ccccc4)[C@H](c4ccccc4)N3[C@H](c3ccc(O)cc3)[C@@]13C(=O)Nc1ccc(C#CCNC(N)=O)cc13)CC2` this time
OUTPUT: 0.114

INPUT: What do we get for CCN(CC)c1ccc(N2CC=CC34O[C@@H]5/C=C\CCCOC(=O)C5[C@H]3C(=O)N(CCCCCCO)[C@@H]4C2=O)cc1 (some centres not stated) ?
OUTPUT: -0.194

INPUT: Please give the result for O=C1C2C=CC(C(O)c3cccc4ccccc34)N(Nc3ccccc3)C2C(=O)N1c1ccccc1 (configuration not stated) too.
OUTPUT: 0.277

INPUT: Likewise for CN1C(=O)C2C=CC(C(O)c3ccc(F)cc3)N(N3CCCCC3)C2C1=O (configuration not stated) ?
OUTPUT: 0.29

INPUT: What do we get for `COC(=O)C(CC#Cc1ccc2c(c1)[C@]1(C(=O)N2)[C@H](C(=O)N2CCc3cc(OC)c(OC)cc3C2)[C@H]2C(=O)O[C@H](c3ccccc3)[C@H](c3ccccc3)N2[C@@H]1c1ccc(OCCO)cc1)C(=O)OC` ?
OUTPUT: 0.239

INPUT: Subsequent entry: `C=CCNC(=O)[C@@H]1[C@H]2C(=O)O[C@H](c3ccccc3)[C@H](c3ccccc3)N2[C@H](c2ccc(O)cc2)[C@@]12C(=O)Nc1ccc(C#CCCO)cc12`
OUTPUT: -0.186
